FYI, the data here is from patent US20230094463A1.

- Target Under Test: T1, Human GAL3 protein (TrueBinding, QCB200349 / QCB200352; R&D Systems, 8259-GA) (human, UniProt P17931 2-250)
- T1 construct: also called human galectin-3
- T1 sequence (P17931 2-250 limits assumed): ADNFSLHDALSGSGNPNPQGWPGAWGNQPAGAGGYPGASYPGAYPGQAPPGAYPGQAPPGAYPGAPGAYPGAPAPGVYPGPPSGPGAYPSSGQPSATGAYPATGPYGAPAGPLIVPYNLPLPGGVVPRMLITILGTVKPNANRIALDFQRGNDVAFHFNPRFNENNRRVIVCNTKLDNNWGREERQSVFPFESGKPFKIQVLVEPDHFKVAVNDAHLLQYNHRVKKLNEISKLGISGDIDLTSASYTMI
- Method Notes: blocking ELISA (GAL3 coated; antibody + biotinylated ITGb3)
Quantity Kind: percent blockade of GAL3-ITGb3 interaction

Request: Find the measured percent blockade of GAL3-ITGb3 interaction of F846TC.14A2 (antibody, V domains shown, anti-Gal3 antibody; also called 846T.14A2) VH: QIQLVQSGPELKKPGETVKISCKASGYTFTNYGMNWVKQAPGKGLKWMGWINTYTGEPTYAGDLKGRFAFSLETSASTAYLQINNLKNEDTATYFCVRYTMDYWGQGTSVTVSS VL: QAVVTQESALTTSPGETVTLTCRSSTGAVTTSNYANWVQEKPDHLFTGLIGGINNRVPGVPARFSGSLIGDKAALTITGAQTEDEAIYFCALWYSNHWVFGGGTKLTVL and report it.
Result: > 90%
